# tested.on: AbyU (Micromonospora maris, UniProt Z9P124SIT8, F95Y, form not given)
# Sequence (Z9P124SIT8 1-160 F95Y): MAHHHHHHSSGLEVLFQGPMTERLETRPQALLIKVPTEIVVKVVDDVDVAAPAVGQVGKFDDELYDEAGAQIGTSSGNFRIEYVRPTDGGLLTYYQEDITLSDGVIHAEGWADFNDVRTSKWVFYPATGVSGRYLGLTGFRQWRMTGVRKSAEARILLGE
# experiment.summary: Multiple turnover (burst phase) stopped-flow kinetics of the AbyU catalysed conversion of 5 to 6
# Format: biochemical, Micromonospora maris AB-18-032
# setup.conditions: binding constant, ES2 conformation; read-out: K2 = k−2/k2
measurement.kind: Kd (nM)
Expressed in nM, but write only the number.

Inquiry: Report Kd for `C=C1OC(=O)C(C(=O)[C@H](C)C[C@H](C)C(=O)/C=C/C=C/C=C/C)=C1OC` please.
Reply text: 1970

---

# tested.on: AbyU (Micromonospora maris, UniProt Z9P124SIT8, F95Y, form not given)
# experiment.summary: Multiple turnover (burst phase) stopped-flow kinetics of the AbyU catalysed conversion of 5 to 6
# Format: biochemical, Micromonospora maris AB-18-032
# setup.conditions: apparent binding constant, two-step route; read-out: Kapp = K2 × K4
measurement.kind: Kd (nM)
Expressed in nM, but write only the number.

Inquiry: API: value(readout= Kd, system= AbyU (Micromonospora maris, UniProt Z9P124SIT8, F95Y, form not given), query= C=C1OC(=O)C(C(=O)[C@H](C)C[C@H](C)C(=O)/C=C/C=C/C=C/C)=C1OC [compound 5] )
Reply text: 1300

Numbers sourced from paper PMC11268479.
